# Target Under Test: UniProtKB P56817
# Sequence (P56817 46-501, species assumed): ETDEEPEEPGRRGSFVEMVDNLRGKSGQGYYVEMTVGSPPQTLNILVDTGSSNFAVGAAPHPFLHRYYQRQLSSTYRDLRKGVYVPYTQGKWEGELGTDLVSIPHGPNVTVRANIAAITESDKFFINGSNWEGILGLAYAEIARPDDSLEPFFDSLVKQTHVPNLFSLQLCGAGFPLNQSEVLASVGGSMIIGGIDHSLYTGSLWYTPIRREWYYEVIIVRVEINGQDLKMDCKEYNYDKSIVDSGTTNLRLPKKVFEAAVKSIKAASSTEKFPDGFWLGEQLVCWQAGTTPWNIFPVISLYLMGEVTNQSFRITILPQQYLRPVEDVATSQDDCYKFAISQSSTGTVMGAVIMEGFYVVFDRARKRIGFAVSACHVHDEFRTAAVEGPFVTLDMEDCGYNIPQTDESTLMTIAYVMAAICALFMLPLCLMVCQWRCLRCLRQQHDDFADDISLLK
# Protocol Details: In Vitro BACE Cell-based Assay (HEK cell assay): Aβ40 in conditioned medium of cells stably expressing Amyloid Precursor Protein, sandwich ELISA
# Test Context: Table IV, class symbols; read-out: HEK cell assay
# reported IC50; entries follow

Some solved entries appear below for comparison.
| Structure Smiles | Target Under Test | IC50 |
| --- | --- | --- |
| COC(C)(C)C#Cc1cnc2c(c1)[C@]1(COC(N)=N1)c1cc(-c3cnccn3)ccc1O2 | UniProtKB P56817 | < 100 nM |
| NC1=N[C@]2(CO1)c1cc(-c3cccnc3)ccc1Oc1ncccc12 | UniProtKB P56817 | 100 to 1000 nM |
| NC1=NC2(CO1)c1cc(-c3ccccc3)ccc1Oc1ccc(-c3ccccc3)cc12 | UniProtKB P56817 | 100 to 1000 nM |

In: Fill in: IC50 of CC(C)(C)COc1ccc2c(c1)[C@@]1(COC(N)=N1)c1cc(-c3cccnc3F)cnc1O2 is ___
Out: < 100 nM

In: Fill in: IC50 of NC1=N[C@@]2(CO1)c1cc(-c3cccnc3)ccc1Oc1ccc(N3CCCC3=O)cc12 is ___
Out: 100 to 1000 nM
